System: Escherichia coli
experimental.details: Antimicrobial activity against Escherichia coli 25922 assessed as absence bacterial growth measured after 18 to 24 hrs incubation in presence of 25% serum by NCCLS method
Assay type: functional
condition.parameters: time 18-24 hrs
Give MIC for every item shown.

Q) So what MIC did `H-WKLWLKGGKLWLKGGKLWLKG-NH2` get with Escherichia coli?
A) > 32 µM

Q) One more substance: `H-MKLWLKGGKLWLKGGKLWLKG-NH2`
A) 32 µM

Q) One more substance: `H-GKLWLKGVKLWLKGGKLWLKG-NH2`
A) > 32 µM

Q) One more substance: `H-GKLWLKGIKLWLKGGKLWLKG-NH2`
A) > 32 µM

Q) One more substance: `H-FKLWLKGGKLWLKGGKLWLKG-NH2`
A) > 32 µM

Q) One more substance: `H-GKLWLKGWKLWLKGGKLWLKG-NH2`
A) 32 µM

Q) One more substance: `H-LKLWLKGGKLWLKGGKLWLKG-NH2`
A) > 32 µM

* * *

System: Listeria monocytogenes
experimental.details: Antimicrobial activity against Listeria monocytogenes 1.10753 assessed as bacterial killing measured after 16 hrs incubation
Type: functional
quantity.kind: MBC

Q) Which value of MBC has been reported for `H-LKLWLKGGKLWLKGGKLWLKG-NH2` in the records?
A) > 32 µM

Q) One more substance: `H-GKLWLKAGKLWLKGGKLWLKG-NH2`
A) > 32 µM

Q) One more substance: `H-AKLWLKGGKLWLKGGKLWLKG-NH2`
A) > 32 µM

Q) One more substance: `H-GKLWLKGMKLWLKGGKLWLKG-NH2`
A) > 32 µM

Q) One more substance: `H-GKLWLKGVKLWLKGGKLWLKG-NH2`
A) > 32 µM

Q) One more substance: `H-GKLWLKGGKLWLKGGKLWLKG-NH2`
A) > 32 µM

Q) One more substance: `H-VKLWLKGGKLWLKGGKLWLKG-NH2`
A) > 32 µM

Q) One more substance: `H-GKLWLKGGKLWLKAGKLWLKG-NH2`
A) > 32 µM

* * *

Tested on: Erythrocyte
experimental.details: Hemolytic activity in human RBC at effective concentration measured after 1 hr by microplate reader analysis
Assay type: toxicity, cell-based
Give HC10 for every item shown.
# unit: µM | format: bare number

Q) So what HC10 did `H-GKLWLKGLKLWLKGGKLWLKG-NH2` get with Erythrocyte?
A) 64

Q) One more substance: `H-GKLWLKGFKLWLKGGKLWLKG-NH2`
A) 128

Q) One more substance: `H-WKLWLKGGKLWLKGGKLWLKG-NH2`
A) 128

Q) One more substance: `H-FKLWLKGGKLWLKGGKLWLKG-NH2`
A) 128

Q) One more substance: `H-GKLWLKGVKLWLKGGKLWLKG-NH2`
A) 128

Q) One more substance: `H-GKLWLKGWKLWLKGGKLWLKG-NH2`
A) 32

Q) One more substance: `H-GKLWLKGIKLWLKGGKLWLKG-NH2`
A) 64

* * *

Tested on: Pseudomonas aeruginosa
experimental.details: Antimicrobial activity against Pseudomonas aeruginosa 27853 assessed as absence bacterial growth measured after 18 to 24 hrs incubation by NCCLS method
Type: functional
condition.parameters: time 18-24 hrs
quantity.kind: MIC (µM)
# unit: µM | format: bare number

Q) So what MIC did `H-GKLWLKGMKLWLKGGKLWLKG-NH2` get with Pseudomonas aeruginosa?
A) 4

Q) One more substance: `H-GKLWLKGLKLWLKGGKLWLKG-NH2`
A) 4

Q) One more substance: `H-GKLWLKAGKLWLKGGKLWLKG-NH2`
A) 4

Q) One more substance: `H-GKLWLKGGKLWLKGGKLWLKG-NH2`
A) 8

Q) One more substance: `H-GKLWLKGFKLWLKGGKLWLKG-NH2`
A) 4
